Target: AuroraA-TPX2 (Homo sapiens)
Construct: 20 μL of AuroraA-TPX2 KD GST for a final volume of about 41 μL; GST
Test: AuroraA-TPX2 Homogeneous Time Resolved Fluorescent (HTRF) kinase assay
Assay type: biochemical
Details: average; read-out: AurA_IC50_IP (uM Avg)
Reported Endpoint: IC50 (µM)

Guide cases for IC50, answers given:
Cpd Smiles | IC50 (µM)
COc1cnc2c(Oc3ccc(Nc4nnc(-c5cnn(C)c5)c5ccccc45)cc3)ccnc2c1 | 0.16
Cc1ccc(-c2nnc(Nc3ccc(Sc4ccnc5cccnc45)cc3)c3ccccc23)cn1 | 0.042
COc1cnc2c(Sc3ccc(Nc4nnc(-c5ccc(C)c(N)c5)c5ccccc45)cc3)ccnc2c1 | 0.009
COc1cnc2c(Oc3ccc(Nc4nnc(-c5ccccc5)c5ccsc45)cc3)ccnc2c1 | 0.027
N#Cc1ccc2c(Oc3ccc(Nc4nnc(-c5ccccc5)c5ccccc45)cc3)ccnc2c1 | 0.039

P. COc1cnc2c(Oc3ccc(Nc4nnc(-c5cc(F)cc(F)c5)c5ccccc45)cc3)ccnc2c1
Q. COc1cnc2c(Oc3ccc(Nc4nnc(-c5ccc(Cl)cc5C)c5ccccc45)cc3)ccnc2c1
Please choose the item with the lower IC50 value from this pair: P and Q Bench note: the answer is the label of the chosen record.
P

* * *

Target: AuroraB (Homo sapiens)
Construct: 20 μL of AuroraB FL H is for a final volume of 41 μL; His
Assay: AuroraB Homogeneous Time Resolved Fluorescent (HTRF) kinase assay
Assay type: biochemical
Details: average; read-out: AurB_IC50_IP (uM Avg)
Reported Endpoint: IC50 (µM)

Guide cases for IC50, answers given:
Compound | Tested On | Reading Unit | IC50
CCc1cc(N2CC[C@H]3CCCC[C@@H]3C2)nnc1Nc1ccc(Oc2ccnc3cc(OC)cnc23)cc1 [compound 300] | AuroraB (Homo sapiens) | µM | 0.067
COc1cnc2c(Oc3ccc(Nc4nnc(-c5cccc(COC(C)=O)n5)c5ccccc45)cc3)ccnc2c1 [compound 132] | AuroraB (Homo sapiens) | µM | 0.005

1. COc1cnc2c(Oc3ccc(Nc4nnc(N5CCCCC5)c5ccccc45)cc3)ccnc2c1 [compound 151]
2. Cc1csc(-c2nnc(Nc3ccc(Sc4ccnc5ccncc45)cc3)c3ccccc23)c1 [compound 428]
Please choose the item with the lower IC50 value from this pair: 1 and 2 Bench note: the answer is the label of the chosen record.
1

1. Clc1ccc(-c2nnc(Nc3ccc(Sc4ccnc5ccsc45)cc3)c3ccccc23)cc1 [compound 332]
2. COc1cnc2c(Sc3ccc(Nc4nnc(-c5cccc(Cl)c5)c5ccccc45)cc3)ccnc2c1 [compound 516]
Please choose the item with the lower IC50 value from this pair: 1 and 2 Bench note: the answer is the label of the chosen record.
1
(1: 0.003 µM, 2: 0.068 µM)

a. COc1cnc2c(Oc3ccc(Nc4nnc(-c5cnc6ccccc6c5)c5ccccc45)cc3)ccnc2c1 [compound 182]
b. Clc1ccc(-c2nnc(Nc3ccc(Sc4ccnc5ccccc45)cc3)c3ccccc23)nc1 [compound 365]
Which value of IC50 is greater, the one for a or the one for b ? Bench note: the answer is the label of the chosen record.
b
(b: 0.011 µM, a: 0.002 µM)

I. COc1cnc2c(Oc3ccc(Nc4nnc(-c5ccc6cc[nH]c6c5)c5ccccc45)cc3)ccnc2c1 [compound 206]
II. CCc1ccc(-c2nnc(Nc3ccc(Oc4ccnc5cc(OC)cnc45)cc3)c3ccccc23)cc1 [compound 221]
Which value of IC50 is greater, the one for I or the one for II ? Bench note: the answer is the label of the chosen record.
II

1. Cc1nc(-c2nnc(Nc3ccc(Oc4ccnc5cc(C#N)ccc45)cc3)c3ccccc23)sc1C [compound 277]
2. COc1cnc2c(Sc3ccc(Nc4nnc(-c5ccc(C)c(O)c5)c5ccccc45)cc3)ccnc2c1 [compound 451]
Please choose the item with the lower IC50 value from this pair: 1 and 2 Bench note: the answer is the label of the chosen record.
1
(1: 0.007 µM, 2: 0.033 µM)

I. Cc1csc(-c2nnc(Nc3ccc(Oc4ccnc5cc(C#N)ccc45)cc3)c3ccccc23)c1 [compound 170]
II. Cc1ccc(-c2nnc(Nc3ccc(Oc4ccnc5cc(C#N)ccc45)cc3)c3ccccc23)cc1 [compound 88]
Which value of IC50 is greater, the one for I or the one for II ? Bench note: the answer is the label of the chosen record.
I

* * *

Target: AuroraA-TPX2 (Homo sapiens, UniProt O14965)
Construct: 20 μL of AuroraA-TPX2 KD GST for a final volume of about 41 μL; GST
Sequence (O14965 133-383 limits assumed): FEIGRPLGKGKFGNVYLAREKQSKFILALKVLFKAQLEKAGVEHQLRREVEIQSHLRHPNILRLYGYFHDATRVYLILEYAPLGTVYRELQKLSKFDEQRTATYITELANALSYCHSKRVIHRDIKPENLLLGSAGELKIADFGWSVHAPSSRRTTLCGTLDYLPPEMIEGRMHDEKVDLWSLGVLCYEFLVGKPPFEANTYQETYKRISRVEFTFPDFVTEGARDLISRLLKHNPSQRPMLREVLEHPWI
Sequence (Q9ULW0 1-43 partner limits assumed): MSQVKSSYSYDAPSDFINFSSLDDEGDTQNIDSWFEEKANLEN
Experiment: AuroraA-TPX2 Homogeneous Time Resolved Fluorescent (HTRF) kinase assay
Assay type: biochemical
Details: average; read-out: AurA_IC50_IP (uM Avg)
Reported Endpoint: IC50 (µM)

a. COc1cnc2c(Oc3ccc(Nc4nnc(-c5ccc(C)cc5)c5ccccc45)cc3F)ccnc2c1
b. COc1cnc2c(Sc3ccc(Nc4nnc(-c5ccn(C)c(=O)c5)c5ccccc45)cc3)ccnc2c1
c. COCCOCCn1c(=O)ccc2nccc(Sc3ccc(Nc4nnc(-c5ccc(Cl)cc5)c5ccccc45)cc3)c21
d. COc1cnc2c(Oc3ccc(Nc4nnc(-c5ccc(Cl)cc5)c5ccccc45)cc3F)ccnc2c1
Order the items by recorded IC50; the first position goes to the largest value. Please list the labels in the order you were asked to rank them.
c, b, d, a

* * *

Biological target: AuroraB (Homo sapiens, UniProt Q96GD4)
Construct: 20 μL of AuroraB FL H is for a final volume of 41 μL; His
Sequence (Q96GD4 whole entry): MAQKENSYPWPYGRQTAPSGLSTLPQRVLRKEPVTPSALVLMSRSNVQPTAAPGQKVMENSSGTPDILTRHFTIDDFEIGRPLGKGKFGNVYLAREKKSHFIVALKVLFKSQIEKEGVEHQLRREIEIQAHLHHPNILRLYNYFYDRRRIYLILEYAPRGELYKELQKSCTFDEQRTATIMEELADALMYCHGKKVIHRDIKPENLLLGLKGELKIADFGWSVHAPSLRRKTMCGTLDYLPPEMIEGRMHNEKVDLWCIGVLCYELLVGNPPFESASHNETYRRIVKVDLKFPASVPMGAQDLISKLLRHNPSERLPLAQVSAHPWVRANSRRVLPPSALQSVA
Test: AuroraB Homogeneous Time Resolved Fluorescent (HTRF) kinase assay
Type: biochemical
Conditions: average; read-out: AurB_IC50_IP (uM Avg)
Reported Endpoint: IC50 (µM)

Guide cases for IC50, answers given:
Compound | Reading Unit | IC50
COc1ccc2ncnc(Oc3ccc(Nc4nnc(-c5cc(C)cs5)c5ccccc45)cc3)c2c1 [compound 565] | µM | 0.108
N#Cc1ccc2c(Oc3ccc(Nc4nnc(-c5ccccc5)c5ccccc45)cn3)ccnc2c1 [compound 174] | µM | 5
COc1cc(OC)c2c(Oc3ccc(Nc4nnc(-c5ccccc5)c5ccccc45)cn3)ncnc2c1 [compound 606] | µM | 0.035
c1ccc(-c2nnc(Nc3ccc(Oc4ccnc5cc(-c6cn[nH]c6)ccc45)cc3)c3ccccc23)cc1 [compound 417] | µM | 0.002

P. Cc1ccc(-c2nnc(Nc3ccc(Oc4ccnc5cc(-c6cncn6C)sc45)cc3)c3ccccc23)cc1 [compound 203]
Q. Clc1ccc(-c2nnc(Nc3ccc(Sc4ccnc5cccnc45)cc3)c3ccccc23)cc1 [Example 33]
R. COCCOc1ccc2c(Sc3ccc(Nc4nnc(-c5ccc(Cl)cc5)c5ccccc45)cc3)ccnc2c1 [compound 431]
S. COc1cnc2c(Oc3ccc(Nc4nnc(-c5ccc(C#N)cc5)c5ccccc45)cc3)ccnc2c1 [compound 181]
Endpoint returns the given compounds ordered by ascending IC50. Please list the labels in the order you were asked to rank them.
P, Q, S, R

* * *

Biological target: AuroraB (Homo sapiens)
Construct: 20 μL of AuroraB FL H is for a final volume of 41 μL; His
Assay: AuroraB Homogeneous Time Resolved Fluorescent (HTRF) kinase assay
Assay type: biochemical
Conditions: average; read-out: AurB_IC50_IP (uM Avg)
Reported Endpoint: IC50 (µM)

1. COc1cnc2c(Oc3ccc(Nc4nncc5ccccc45)cc3)ccnc2c1
2. COc1cnc2c(Sc3ccc(Nc4nnc(OCCC5CCCCN5)c5ccccc45)cc3)ccnc2c1 (stereo not shown)
3. Clc1ccc(-c2nnc(Nc3ccc(Sc4ccnc5cc[nH]c45)cc3)c3ccccc23)cc1
Number of molecules to sort: 3. Sort criterion: IC50, ascending. Please list the labels in the order you were asked to rank them.
2, 3, 1

* * *

Target: AuroraA-TPX2 (Homo sapiens, UniProt O14965)
Construct: 20 μL of AuroraA-TPX2 KD GST for a final volume of about 41 μL; GST
Experiment: AuroraA-TPX2 Homogeneous Time Resolved Fluorescent (HTRF) kinase assay
Format: biochemical
Conditions: average; read-out: AurA_IC50_IP (uM Avg)
Reported Endpoint: IC50 (µM)

Guide cases for IC50, answers given:
Compound | Reading Unit | IC50
CN1CCN(c2nnc(Nc3ccc(Oc4ccnc5cc(C#N)ccc45)cc3)c3ccccc23)CC1 [compound 94] | µM | 0.027
COC1CCN(c2nnc(Nc3ccc(Oc4ccnc5ccoc45)cc3)c3ccccc23)CC1 [compound 478] | µM | 2.03
COc1cnc2c(Oc3ccc(Nc4nnc(-c5cc(C)cs5)c5ccccc45)cc3)ccnc2c1 [compound 152] | µM | 0.006
COc1cnc2c(Sc3ccc(Nc4nnc(-c5ccc6cn[nH]c6c5)c5ccccc45)cc3)ccnc2c1 [compound 453] | µM | 0.028
COc1cc2nccc(Sc3ccc(Nc4nnc(-c5ccccc5)c5ccccc45)cc3)c2cc1OC [compound 104] | µM | 0.036

1. COc1cnc2c(Oc3ccc(Nc4nnc(-c5ccc(Cl)cc5)c5ccccc45)cc3OC)ccnc2c1 [compound 566]
2. CCOc1nc(-c2nnc(Nc3ccc(Sc4ccnc5cc(OC)cnc45)cc3)c3ccccc23)cs1 [compound 505]
Please choose the item with the lower IC50 value from this pair: 1 and 2 Bench note: the answer is the label of the chosen record.
2

* * *

Each item that follows carries a reported pIC50.
Molecular target: AuroraB (Homo sapiens, UniProt Q96GD4)
Construct: 20 μL of AuroraB FL H is for a final volume of 41 μL; His
Assay: AuroraB Homogeneous Time Resolved Fluorescent (HTRF) kinase assay
Type: biochemical
Conditions: given as class symbol; read-out: AurB_IC50_IP (class symbol)
pIC50: −log10 of the molar value.

Cpd Smiles | pIC50
Fc1cc(F)c2c(Sc3ccc(Nc4nnc(-c5ccccc5)c5ccccc45)cc3)ccnc2c1 | > 7.00

Reported pIC50 for c1ccc(-c2nnc(Nc3ccc(Sc4ccnc5ccccc45)cc3)c3ccccc23)cc1 : what is it?
> 7.00

Entry source: patent US8557816B2
